B1: OR4K15 (parent)
chain: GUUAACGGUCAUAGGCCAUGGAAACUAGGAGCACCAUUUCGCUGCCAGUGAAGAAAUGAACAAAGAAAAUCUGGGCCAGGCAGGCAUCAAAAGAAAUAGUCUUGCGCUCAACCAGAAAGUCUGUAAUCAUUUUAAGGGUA

variants of: B1; assay: self-cleavage, relative activity (ratio to wild type); higher = more cleavage; in vitro, sequencing; the parent is a self-cleaving ribozyme
Provide the reported self-cleavage of each item.
One number for each entry.

Previously resolved entries follow.
>>> value_measured("GUUAACGGUCAUAGGCCAUGGAAACUAGGAGCACCAUUUCGCUGCCAGUGAAGGAAUGAACAAAGAAAAUCUGGGCCAGGCAGGCAUCAAAAGAAAUAGUCUUGCGCUCAACCAGAAAGUCUGUAUUCAUUUUAAGGGUA [A54G A126U]")
0.42
>>> value_measured("GUUAACGGUCAUAGGCCAUGGAAACUAGGAGCACCAUUUCGCCGCCAGUGAAGAAAUGAACAAAGAAAAUCUGGGCCAGGCAGGCAUCAAAAGAAAUAGUCUUGCGCUCAACCAGAAAGUCUGUAAUCAUUUUAAGGGUG [U43C A140G]")
1.95
>>> value_measured("GUUAACGGUCAUAGGCCAUGGAAACUAGGAGCACCAUUUCGCUGCCAGUGAAGAUAUGAACAAAGAAAAUCUGGGCCAGGCAGGCAUCAAAAGAAAUUGUCUUGCGCUCAACCAGAAAGUCUGUAAUCAUUUUAAGGGUA [A55U A98U]")
2.38
>>> value_measured("GUUAACGGUCAUAGGCCAUGGAAGCUAGGAGCACUAUUUCGCUGCCAGUGAAGAAAUGAACAAAGAAAAUCUGGGCCAGGCAGGCAUCAAAAGAAAUAGUCUUGCGCUCAACCAGAAAGUCUGUAAUCAUUUUAAGGGUA [A24G C35U]")
1.12
>>> value_measured("GUUAACGGUCAUAGGCCAUGGAAACUAGGAGCACCAUUUCGCUGCCAGUGAAGAAAUGAACAAAGAAAAUCUGGGCCAGGCAGGCAUUAAAAGAGAUAGUCUUGCGCUCAACCAGAAAGUCUGUAAUCAUUUUAAGGGUA [C88U A95G]")
2.12
>>> value_measured("GUUAACGGUCAUAGGCCAUGGAAACUAGGAGCACCAUUUCGCUGCCAGCGUAGAAAUGAACAAAGAAAAUCUGGGCCAGGCAGGCAUCAAAAGAAAUAGUCUUGCGCUCAACCAGAAAGUCUGUAAUCAUUUUAAGGGUA [U49C A51U]")
0.99

Hi, could you look up self-cleavage for each item in my list?
1. GAUAACGGUCAUAGGCCAUGGAAACUAGGAGCACCACUUCGCUGCCAGUGAAGAAAUGAACAAAGAAAAUCUGGGCCAGGCAGGCAUCAAAAGAAAUAGUCUUGCGCUCAACCAGAAAGUCUGUAAUCAUUUUAAGGGUA [U2A U37C]
2. GUUUACGGUCAUAGGCCAUGGAAACUAGGAGCACCAUUUCGCUGCCAGUGAAGAAAUGAACAAAGAAAAUCUGGGCCAGGCAGGCAUCAAAAGAAAUAGUCUUGCGCUCAACCAGAAAGUCUGUAAUCAUUUUAAGGGUG [A4U A140G]
3. GUUAACGGUCAUAGGCCAUGGAAACUAGGAGCACCAUUUCGCUGCCAGCGAAGAAAUGAACAAAGAAAAUCUGGGCCAGGCAGGCAUCAGAAGAAAUAGUCUUGCGCUCAACCAGAAAGUCUGUAAUCAUUUUAAGGGUA [U49C A90G]
4. GUUAGCGGUCAUAGGCCAUGGAAACUUGGAGCACCAUUUCGCUGCCAGUGAAGAAAUGAACAAAGAAAAUCUGGGCCAGGCAGGCAUCAAAAGAAAUAGUCUUGCGCUCAACCAGAAAGUCUGUAAUCAUUUUAAGGGUA [A5G A27U]
5. GUUAACGGUCAUAGGCCAUGGAAACUAGGAGCACCAUCUCGCUGCCAGUGACGAAAUGAACAAAGAAAAUCUGGGCCAGGCAGGCAUCAAAAGAAAUAGUCUUGCGCUCAACCAGAAAGUCUGUAAUCAUUUUAAGGGUA [U38C A52C]
6. GUUAACGGUCAUAGGCCAUGGAAACUAGGAGCACCAUUUCGCUGCCAGUGAAGAAAUGAACAAAGAAAGACUGGGCCAGGCAGGCAUCAAAAGAAAUAGUCUUGCGCUCAACCAGAAAGUCUGUAAUCAUUUUAAGGGUA [A69G U70A]
7. GUUCACGGUCAUAGGCCAUGGAAACUAGGAGCACCAUUUCGCUGCCAGUGAAGAAAUGAACAAAGAAAAUCUGGGCCAGGCAGGCAUCAAAAGAAAUAGCCUUGCGCUCAACCAGAAAGUCUGUAAUCAUUUUAAGGGUA [A4C U100C]

Output:
1.34
1.16
0.94
0.96
0.68
1.26
1.19

Hi, could you look up self-cleavage for each item in my list?
1. GUUAACGGUCAUAGGCCAUGGAAACUAGGAGCACCAUUUCGCUGCCAGUGAAGAAAUGAACAAAGAAAAUCAGGGCCAGGCAGGUAUCAAAAGAAAUAGUCUUGCGCUCAACCAGAAAGUCUGUAAUCAUUUUAAGGGUA [U72A C85U]
2. GUUAACGGUCUUAGGCCAAGGAAACUAGGAGCACCAUUUCGCUGCCAGUGAAGAAAUGAACAAAGAAAAUCUGGGCCAGGCAGGCAUCAAAAGAAAUAGUCUUGCGCUCAACCAGAAAGUCUGUAAUCAUUUUAAGGGUA [A11U U19A]

Output:
1: 0.36; 2: 1.38

The reported numbers originate from the RNAGym collection of RNA variant scans (doi:10.7554/elife.90254).
